- protocol.summary: Partition coefficient (logP)
- Type: physicochemical
- test.conditions: octanol/water
measured.parameter: logP

compound: NC(=O)C(F)F
logP: -0.76

[A] NC(=O)Cc1ccc(OCC2CCCCC2)cc1
[B] CCOc1ccc(CC(N)=O)cc1
[C] CCCc1cn[nH]c1
[D] COc1ccc(CC(N)=O)cc1
QUERY: Kindly order the items shown according to logP, from the highest value down. Sort the labels as requested; that list is your answer.
RESULT: A, C, B, D

###

- target.under.test: Alcohol dehydrogenase (Equus caballus, UniProt P00327+P00328)
- protocol.summary: Inhibitory activity against horse liver alcohol dehydrogenase (ADH)
measured.parameter: Log 1/Ki

Please review the following examples before continuing.
compound: O=CNCc1ccc(OCc2ccccc2)cc1
Log 1/Ki: 7.82
//
compound: NC(=O)Cc1ccc(F)cc1
Log 1/Ki: 4.19
//
compound: CCCCOc1ccc(CNC=O)cc1
Log 1/Ki: 7.4
//
compound: CCCCCc1cn[nH]c1
Log 1/Ki: 8.6
//
compound: Cc1cn[nH]c1 [FOMEPIZOLE]
Log 1/Ki: 6.85
//
compound: NC(=O)Cc1ccc(Cl)cc1
Log 1/Ki: 4.7
//
compound: NC(=O)C(F)(F)F [TRIFLUOROACETAMIDE]
Log 1/Ki: 1.33
//
compound: CCCCCOc1ccc(CNC=O)cc1
Log 1/Ki: 7.52
//
compound: CCCCOc1ccc(CC(N)=O)cc1
Log 1/Ki: 5.15
//
compound: CC(C)Oc1ccc(CC(N)=O)cc1
Log 1/Ki: 4.1

[1] C/C=C(\C)C(N)=O
[2] CCCc1cn[nH]c1
QUERY: Which shows the larger Log 1/Ki value: 1 or 2 ? Please reply using the label of the selected record.
RESULT: 2

###

- protocol.summary: Partition coefficient (logP)
- Assay type: physicochemical
- test.conditions: octanol/water
measured.parameter: logP

compound: CC(C)(C)C(N)=O [PIVALAMIDE]
logP: 0.15
--
compound: CCCCCCc1cn[nH]c1
logP: 3.46
--
compound: C=C(C)C(N)=O
logP: -0.71
--
compound: NC(=O)C(Cl)(Cl)Cl
logP: 0.79
--
compound: CC(C)Oc1ccc(CC(N)=O)cc1
logP: 1.3
--
compound: CC(C)CCOc1ccc(CC(N)=O)cc1
logP: 2.38
--
compound: NC(=O)Cc1ccc(Cl)cc1
logP: 1.16
--
compound: NC(=O)CF [MONOFLUOROACETAMIDE]
logP: -1.03

[1] CCCCCOc1ccc(CC(N)=O)cc1
[2] CCCOc1ccc(CC(N)=O)cc1
QUERY: Which shows the larger logP value: 1 or 2 ? Please reply using the label of the selected record.
RESULT: 1
(1: 2.58, 2: 1.5)

###

- target.under.test: Alcohol dehydrogenase (Equus caballus, UniProt P00327+P00328)
- protocol.summary: Inhibitory activity against horse liver alcohol dehydrogenase (ADH)
measured.parameter: Log 1/Ki

compound: NC(=O)Cc1ccc(OCC2CCCCC2)cc1
Log 1/Ki: 6

compound: C=CC(N)=O [ACRYLAMIDE]
Log 1/Ki: 2.11

compound: c1cn[nH]c1 [PYRAZOLE]
Log 1/Ki: 5.73

###

- target.under.test: Alcohol dehydrogenase (Equus caballus, UniProt P00327+P00328)
- protocol.summary: Inhibitory activity against horse liver alcohol dehydrogenase (ADH)
measured.parameter: Log 1/Ki

chemical.structure: C/C=C/C(N)=O
endpoint.result: 2.89

[I] CCCCCCc1cn[nH]c1
[II] CCC(CC)C(N)=O
QUERY: Of the pair I and II , name the member with the lesser recorded Log 1/Ki. Please reply using the label of the selected record.
RESULT: II
(II: 3.41, I: 8.88)
